pKd reference
# systemTested: T1, IFN-αJ1 (human, UniProt P01567 24-189)
# T1 construct: Recombinant, HEK293; also called IFN-α7
# runDescription: ProteOn SPR, cell supernatant;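 further: each binding measurement used just a single antigen concentration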
FYI, pKd means -log10 of a concentration in mol per litre.

binder: IFWM3407 (antibody, IgG1, V domains shown, mAb; IgG1/kappa said of the parent and of selected mAbs; also called IFWB3142) VH: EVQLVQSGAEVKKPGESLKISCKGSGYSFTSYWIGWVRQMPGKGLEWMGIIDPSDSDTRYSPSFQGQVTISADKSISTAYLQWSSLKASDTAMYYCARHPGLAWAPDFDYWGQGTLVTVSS VL: DIQMTQSPSSLSASVGDRVTITCRASQSIRNNNLNWYQQKPGKAPKLLIHWASSLQSGVPSRFSGSGSGTDFTLTISSLQPEDFATYYCQQGYDTPFTFGQGTKVEIK
pKd: 10.24
--
binder: IFWM3382 (antibody, IgG1, V domains shown, mAb; IgG1/kappa said of the parent and of selected mAbs; also called IFWB3117) VH: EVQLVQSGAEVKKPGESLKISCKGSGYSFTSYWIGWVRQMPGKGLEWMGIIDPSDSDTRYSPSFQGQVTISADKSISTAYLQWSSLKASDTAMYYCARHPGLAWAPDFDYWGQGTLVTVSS VL: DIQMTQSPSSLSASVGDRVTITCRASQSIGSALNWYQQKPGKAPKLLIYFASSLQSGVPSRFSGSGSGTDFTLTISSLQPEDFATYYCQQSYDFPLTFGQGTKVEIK
pKd: 10.43
--
binder: IFWM3396 (antibody, IgG1, V domains shown, mAb; IgG1/kappa said of the parent and of selected mAbs; also called IFWB3131) VH: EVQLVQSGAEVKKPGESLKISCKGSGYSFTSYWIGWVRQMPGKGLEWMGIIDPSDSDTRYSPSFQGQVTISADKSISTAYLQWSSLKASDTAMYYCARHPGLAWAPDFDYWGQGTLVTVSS VL: DIQMTQSPSSLSASVGDRVTITCRASQSISEYLNWYQQKPGKAPKLLIYFASSLQSGVPSRFSGSGSGTDFTLTISSLQPEDFATYYCQQSHSLPITFGQGTKVEIK
pKd: 10.43
--
binder: IFWM3394 (antibody, IgG1, V domains shown, mAb; IgG1/kappa said of the parent and of selected mAbs; also called IFWB3129) VH: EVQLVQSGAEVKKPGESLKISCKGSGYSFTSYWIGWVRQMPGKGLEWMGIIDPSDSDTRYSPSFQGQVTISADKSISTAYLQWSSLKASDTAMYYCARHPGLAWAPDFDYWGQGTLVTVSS VL: DIQMTQSPSSLSASVGDRVTITCRASQSINEFLNWYQQKPGKAPKLLIYFASSLQSGVPSRFSGSGSGTDFTLTISSLQPEDFATYYCQQSYSTPLTFGQGTKVEIK
pKd: 10.11

// below: pKd requested for another binder
Reported pKd for IFWM3375 (antibody, IgG1, V domains shown, mAb; IgG1/kappa said of the parent and of selected mAbs; also called IFWB3110) VH: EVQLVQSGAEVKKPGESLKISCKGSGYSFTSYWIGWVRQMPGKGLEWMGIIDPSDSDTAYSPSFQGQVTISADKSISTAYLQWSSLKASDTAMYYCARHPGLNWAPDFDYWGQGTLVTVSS VL: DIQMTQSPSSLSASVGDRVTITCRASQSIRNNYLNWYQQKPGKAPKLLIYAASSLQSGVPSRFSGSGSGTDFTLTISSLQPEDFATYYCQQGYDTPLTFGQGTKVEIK was 10.35

Sourced from patent US20150368338A1
